Values were extracted from ChEMBL document CHEMBL1681687.

# target or test system: Beta-2 adrenergic receptor (Homo sapiens)
# Sequence (P07550 whole entry): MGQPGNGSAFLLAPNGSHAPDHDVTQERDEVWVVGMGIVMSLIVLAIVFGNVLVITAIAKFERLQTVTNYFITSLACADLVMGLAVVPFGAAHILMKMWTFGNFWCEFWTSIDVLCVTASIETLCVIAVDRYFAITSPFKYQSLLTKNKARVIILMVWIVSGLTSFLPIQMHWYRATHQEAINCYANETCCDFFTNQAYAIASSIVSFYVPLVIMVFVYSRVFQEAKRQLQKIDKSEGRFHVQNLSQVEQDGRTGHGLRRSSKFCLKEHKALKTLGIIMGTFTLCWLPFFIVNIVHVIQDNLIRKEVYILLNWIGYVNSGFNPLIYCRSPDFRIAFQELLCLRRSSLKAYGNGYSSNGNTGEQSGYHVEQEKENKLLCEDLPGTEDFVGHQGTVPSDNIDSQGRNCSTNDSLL
# method description: Agonist activity at human beta2-adrenoceptor expressed in HEK cells assessed as increase of cAMP level after 10 mins by radioimmunoassay
recorded metric: EC50 (nM)

Past entries and their recorded results:
[
  {
    "compound": "O=CNc1cc([C@@H](O)CNCCCCCCCCCN2CCC(OC(=O)Nc3ccccc3-c3ccccc3)CC2)ccc1O",
    "unit info": "nM",
    "EC50": 2.6
  },
  {
    "compound": "O=C(Nc1ccccc1-c1ccccc1)O[C@H]1C[N+]2(CCCCCCCCCNCC(O)c3ccc(O)c4[nH]c(=O)ccc34)CCC1CC2 (some centres undefined)",
    "unit info": "nM",
    "EC50": 8.9
  }
]

A. O=C(Nc1ccccc1-c1ccccc1)OC1CCN(CCCCCCCNC[C@H](O)c2ccc(O)c3[nH]c(=O)ccc23)CC1
B. O=C(Nc1ccccc1-c1ccccc1)NC1CCN(CCCCCCCCCNCC(O)c2ccc(O)c3[nH]c(=O)ccc23)CC1 (centres undefined)
# min-compare on EC50 between A and B # answer = label of selected item
A
(A: 1.1 nM, B: 8.4 nM)
